- testSystem: HLA-A*02 (Homo sapiens, UniProt P04439, D140Y/D185E/D98H/E176V/E277Q/G131W/G231S/I119V/I121R/I166T/I218V/N151K/N90K/P208A/P217A/Q86G/Q94H/R138H/R169H)
- experimentNotes: MHC binding assay (UV-ligand exchange, β2m ELISA), HLA-A*02
- conditionDescription: peptide exchange yield, binding to HLA-A*02, Table 20
measuredMetric: Peptide exchange

substance: 248 (YLDRFLAGV; listed as Homo sapiens) [compound 248]
result: ++++ (> = 75% = ++++)
--
substance: 249 (GLCERLVSL; listed as Homo sapiens) [compound 249]
result: ++++ (> = 75% = ++++)
--
substance: 51 (LLFSRLCGA; listed as Homo sapiens) [compound 51]
result: ++++ (> = 75% = ++++)
--
substance: 257 (GLYTDPCGV; listed as Homo sapiens) [compound 257]
result: ++++ (> = 75% = ++++)
--
substance: 100 (ALLGMIIVGV; listed as Homo sapiens) [compound 100]
result: + (<20% = +)

Return reported Peptide exchange. Input substance: 120 (VTPVTVSAV; listed as Homo sapiens) [compound 120]
+ (<20% = +)

Quickly give me recorded Peptide exchange for 12 (GLLPLLHRA; listed as Homo sapiens) [compound 12]
++++ (> = 75% = ++++)

Using known records, supply Peptide exchange for 14 (ILAKDLFEI; listed as Homo sapiens) [compound 14]
++++ (> = 75% = ++++)

Supply measured Peptide exchange of 112 (SLGKFTFDV; listed as Homo sapiens) [compound 112] in your reply.
++++ (> = 75% = ++++)
